Cited source: the kinase profiling compilation of Christmann-Franck et al. (2016)

Provide the reported residual activity of each item.
biological target: HIPK2 (human); test: radiometric filter-binding kinase assay, Kinase HotSpot; settings: compound 0.5 µM; ATP 10 µM
Please respond with the number in % and leave the unit unwritten.

In plain terms, `Cc1nc2cc3nc(-c4cccs4)cnc3cc2n1C` has a documented residual activity of 107

Sample `O=C1Nc2ccccc2/C1=C1\Nc2ccccc2\C1=N/O` ; residual activity observed: 104

// `CN([C@@H](Cc1ccc(OS(=O)(=O)c2cccc3cnccc23)cc1)C(=O)N1CCN(c2ccccc2)CC1)S(=O)(=O)c1cccc2cnccc12` : residual activity value = 109

---

target: RPS6KA4 KD2 (human); assay: radiometric filter-binding kinase assay, Kinase HotSpot; conditions: compound 0.5 µM; ATP 10 µM
Could you mark each record Criterion met if its residual activity falls strictly under 90%, and Criterion not met if it equals or exceeds it?

Q: Dear colleague, could you confirm whether residual activity of `O=C1Cc2c([nH]c3ccc(Br)cc23)-c2ccccc2N1` falls below 90%? Thanks.
Ans: Criterion not met

Q: Could you please tell me whether residual activity recorded for `O=C1NC(=O)/C(=C\c2ccc3nccnc3c2)S1` is less than 90%?
Ans: Criterion not met

Q: Item `CCN(CC)CCCCN1c2ccccc2Oc2ccc(Cl)cc21` : residual activity beneath 90%, strictly?
Ans: Criterion met

Q: Does the reported residual activity of `CN(C)C[C@H]1CCn2c(c(C3=C(c4cn(C)c5ccccc45)C(=O)NC3=O)c3ccccc32)C1` stay below 90%?
Ans: Criterion met

Q: Please state whether residual activity is below 90% for `O=C1NC(=O)C(c2cn(CCCO)c3ncccc23)=C1c1cnccn1`
Ans: Criterion not met

Q: Confirm or reject: residual activity of `O=C(CCCc1ccc(-c2ccccc2F)cc1)Nc1ccc(O)cc1` lies strictly below 90%
Ans: Criterion not met

---

Answer each item with its documented residual activity.
target: PIM3 (human) (UniProt Q86V86); assay: radiometric filter-binding kinase assay, Kinase HotSpot; settings: compound 0.5 µM; ATP 10 µM
Field: numeric (%). Do not append units.

Measured residual activity (PIM3 (human) (UniProt Q86V86)), entry `COc1ccc(CNC(=O)Nc2ncc([N+](=O)[O-])s2)cc1` : 108

Item `Cn1cnc2cc3c(Nc4cccc(Br)c4)ncnc3cc21` ; assay system PIM3 (human) (UniProt Q86V86); residual activity reported as 104

Entry `COc1cc2ncc(-c3ccccc3)nc2cc1OC` ; assay system PIM3 (human) (UniProt Q86V86); residual activity recorded at 87.4

Hey, PIM3 (human) (UniProt Q86V86) data for `O=C1Nc2ccccc2/C1=C1\Nc2ccccc2\C1=N/O` : residual activity came out at 73.6

Tested on PIM3 (human) (UniProt Q86V86), the item `O=C(CCCc1ccc(-c2ccccc2F)cc1)Nc1ccc(O)cc1` showed residual activity equal to 104

Entry `O=C1Cc2c([nH]c3ccc(Br)cc23)-c2ccccc2N1` ; assay system PIM3 (human) (UniProt Q86V86); residual activity recorded at 84.6

So the reported residual activity for `O=C(O)/C=C/c1cc(Br)c(Br)c(Br)c1Br` , on PIM3 (human) (UniProt Q86V86), turned out to be 17.7

Record `CC(C)[C@H](CO)Nc1nc(Nc2cc(N)cc(Cl)c2)c2ncn(C(C)C)c2n1` / PIM3 (human) (UniProt Q86V86), residual activity recorded as 93

The compound `CC(=O)O/N=C1\C(=C2\C(=O)Nc3cc(Br)ccc32)Nc2ccccc21` , when measured on PIM3 (human) (UniProt Q86V86), yielded residual activity of 54.2

Record `CC(C)c1nn(-c2c(Cl)cccc2Cl)c2nc(Cc3ccc(OCCO)cc3)nc(O)c12` has PIM3 (human) (UniProt Q86V86) residual activity equal to 105

The compound `O=C1NC(=O)C(c2c[nH]c3ccccc23)=C1c1c[nH]c2ccccc12` on PIM3 (human) (UniProt Q86V86): residual activity was 32.7

For `COc1cc2ncnc(N3CCN(C(=O)Nc4ccc(Oc5ccccc5)cc4)CC3)c2cc1OC` on PIM3 (human) (UniProt Q86V86), measured residual activity was 94.4

The recorded residual activity with PIM3 (human) (UniProt Q86V86) for `CCN(CC)CCCCN1c2ccccc2Oc2ccc(Cl)cc21` was 37.8

---

biological target: AURKA (human); experiment: radiometric filter-binding kinase assay, Kinase HotSpot; conditions: compound 0.5 µM; ATP 10 µM
measurement_label: residual activity (%)
// return numeric value only (unit: %, not printed)

residual activity recorded for this compound, `COc1ccc(OC)c2c(=S)c3ccccc3[nH]c12` , is 116

Lab note: `O=C1NC(=O)C(c2cn(CCCO)c3ncccc23)=C1c1cnccn1` gave residual activity of 107

Note to self: residual activity recorded for `O=C(Nc1cccc(Nc2cc(Nc3cccc(C(F)(F)F)c3)ncn2)c1)C1CC1` was 107

---

target: UniProt Q8TDC3; experiment: radiometric filter-binding kinase assay, Kinase HotSpot; conditions: compound 0.5 µM; ATP 10 µM
Sequence (Q8TDC3 whole entry, looked up): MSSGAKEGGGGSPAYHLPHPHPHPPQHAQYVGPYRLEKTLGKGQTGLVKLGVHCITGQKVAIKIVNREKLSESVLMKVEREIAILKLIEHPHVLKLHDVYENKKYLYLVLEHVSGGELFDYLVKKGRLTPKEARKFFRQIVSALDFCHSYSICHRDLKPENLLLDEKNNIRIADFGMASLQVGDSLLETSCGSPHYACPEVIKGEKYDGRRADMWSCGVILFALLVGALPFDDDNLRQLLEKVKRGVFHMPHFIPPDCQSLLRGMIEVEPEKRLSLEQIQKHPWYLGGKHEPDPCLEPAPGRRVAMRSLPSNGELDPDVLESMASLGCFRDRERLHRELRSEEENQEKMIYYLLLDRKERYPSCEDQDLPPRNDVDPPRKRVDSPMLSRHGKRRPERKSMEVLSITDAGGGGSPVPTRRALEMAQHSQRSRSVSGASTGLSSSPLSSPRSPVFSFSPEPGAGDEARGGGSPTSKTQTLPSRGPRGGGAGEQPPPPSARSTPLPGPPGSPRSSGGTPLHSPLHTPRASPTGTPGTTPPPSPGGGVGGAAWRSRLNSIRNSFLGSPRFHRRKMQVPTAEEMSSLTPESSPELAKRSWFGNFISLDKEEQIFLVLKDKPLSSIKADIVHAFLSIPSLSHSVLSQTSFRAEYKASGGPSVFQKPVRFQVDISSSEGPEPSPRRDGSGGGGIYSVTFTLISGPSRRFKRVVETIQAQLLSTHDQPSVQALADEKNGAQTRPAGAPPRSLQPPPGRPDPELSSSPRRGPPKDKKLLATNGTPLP
Under this convention, 1 denotes residual activity strictly below 90% and 0 denotes residual activity at or above 90%.

Q: # TODO verify residual activity < 90% strictly for this molecule: `O=C(O)/C=C/c1cc(Br)c(Br)c(Br)c1Br`
Ans: 1

Q: Consider `CN(C)C[C@H]1CCn2c(c(C3=C(c4cn(C)c5ccccc45)C(=O)NC3=O)c3ccccc32)C1` . Does its residual activity lie strictly below 90%?
Ans: 0

Q: Bench note: check whether `Nc1nccc(-c2c(-c3ccc(F)cc3)ncn2C2CCNCC2)n1` shows residual activity below 90%
Ans: 0

Q: residual activity under 90%? Item: `O=C(Nc1cccc(Nc2cc(Nc3cccc(C(F)(F)F)c3)ncn2)c1)C1CC1`
Ans: 0

Q: Identify whether the molecule `Cn1sc(=O)n(Cc2ccccc2)c1=O` records residual activity below 90%.
Ans: 0

Q: Say whether its residual activity is strictly beneath 90%. Entry: O=C1Nc2ccccc2/C1=C1/Nc2ccccc2/C1=N\OCCC(O)CO (stereo not given)
Ans: 1

Q: I'd appreciate it if you could check whether `Oc1ccc(Nc2nc(-c3ccc(Cl)cc3)cs2)cc1` has residual activity smaller than 90%.
Ans: 0

Q: Threshold test, residual activity < 90%: `O=C1NC(=O)C(c2c[nH]c3ccccc23)=C1c1c[nH]c2ccccc12`
Ans: 1

Q: Take the molecule `O=C1Nc2ccccc2/C1=C1\Nc2ccccc2\C1=N/O` and say whether its residual activity is less than 90%.
Ans: 1

---

target: PRKCH (human) (UniProt P24723); assay: radiometric filter-binding kinase assay, Kinase HotSpot; settings: compound 0.5 µM; ATP 10 µM
Sequence (P24723 whole entry, looked up): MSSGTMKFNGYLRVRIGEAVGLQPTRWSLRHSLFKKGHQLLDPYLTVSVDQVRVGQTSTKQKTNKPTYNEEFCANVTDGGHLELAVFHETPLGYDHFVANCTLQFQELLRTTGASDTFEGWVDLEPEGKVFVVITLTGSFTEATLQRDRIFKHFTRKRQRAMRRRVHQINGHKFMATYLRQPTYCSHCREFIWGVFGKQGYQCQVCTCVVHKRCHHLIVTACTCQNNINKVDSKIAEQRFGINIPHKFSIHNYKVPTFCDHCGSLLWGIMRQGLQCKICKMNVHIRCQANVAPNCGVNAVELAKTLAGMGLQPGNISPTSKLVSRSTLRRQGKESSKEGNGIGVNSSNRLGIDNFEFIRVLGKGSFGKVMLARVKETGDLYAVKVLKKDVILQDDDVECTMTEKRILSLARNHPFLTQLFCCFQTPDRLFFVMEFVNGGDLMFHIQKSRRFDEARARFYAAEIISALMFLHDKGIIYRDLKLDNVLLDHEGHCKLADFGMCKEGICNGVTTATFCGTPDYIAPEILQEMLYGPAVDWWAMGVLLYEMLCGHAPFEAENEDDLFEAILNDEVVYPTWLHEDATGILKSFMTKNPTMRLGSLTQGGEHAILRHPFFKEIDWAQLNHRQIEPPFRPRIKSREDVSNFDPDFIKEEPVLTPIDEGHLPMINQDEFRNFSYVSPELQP
Field: residual activity. Provide a value for each of the molecules that follow.
Report only the number, with the unit % understood.

Observed residual activity, PRKCH (human) (UniProt P24723), `O=C(O)/C=C/c1cc(Br)c(Br)c(Br)c1Br` : 83.7

Measured residual activity (PRKCH (human) (UniProt P24723)), entry `COc1cc2ncc(-c3ccccc3)nc2cc1OC` : 107

// molecule `Cc1nc2cc3nc(-c4cccs4)cnc3cc2n1C` , assay PRKCH (human) (UniProt P24723), residual activity value: 96.8

Measured on PRKCH (human) (UniProt P24723), `COc1ccc(OC)c2c(=S)c3ccccc3[nH]c12` has a documented residual activity of 86.2

Short answer on PRKCH (human) (UniProt P24723) for `COc1ccc(CNC(=O)Nc2ncc([N+](=O)[O-])s2)cc1` , residual activity: 64.1

Entry `Cn1sc(=O)n(Cc2ccccc2)c1=O` : residual activity on PRKCH (human) (UniProt P24723) = 89

Assay PRKCH (human) (UniProt P24723), sample `O=C(Nc1cccc(Nc2cc(Nc3cccc(C(F)(F)F)c3)ncn2)c1)C1CC1` , residual activity read: 88.2

Reported residual activity (PRKCH (human) (UniProt P24723)) for entry `CCN(CC)CCCCN1c2ccccc2Oc2ccc(Cl)cc21` is 108

Entry `c1cc(-c2cnn3cc(-c4ccc(OCCN5CCCCC5)cc4)cnc23)ccn1` , PRKCH (human) (UniProt P24723) data, residual activity value: 95

Assay PRKCH (human) (UniProt P24723), sample `O=C1NC(=O)/C(=C\c2ccc3nccnc3c2)S1` , residual activity read: 89.7

`O=C(CCCc1ccc(-c2ccccc2F)cc1)Nc1ccc(O)cc1` tested on PRKCH (human) (UniProt P24723) gave residual activity: 84

The value of residual activity recorded for `CC(=O)O/N=C1\C(=C2\C(=O)Nc3cc(Br)ccc32)Nc2ccccc21` when tested on PRKCH (human) (UniProt P24723) reads 95.4

The reported PRKCH (human) (UniProt P24723) residual activity of `NC(=O)Nc1sc(-c2ccc(F)cc2)cc1C(N)=O` is 83.5

Entry `COc1cc2ncnc(N3CCN(C(=O)Nc4ccc(Oc5ccccc5)cc4)CC3)c2cc1OC` , tested on PRKCH (human) (UniProt P24723), has a reported residual activity of 86.1

The reported residual activity value, PRKCH (human) (UniProt P24723), for O=C1Nc2ccccc2/C1=C1/Nc2ccccc2/C1=N\OCCC(O)CO (configuration not stated) reads 82.2

For the molecule `COc1cc(OC)c(/C=C2\C(=O)Nc3ccccc32)c(OC)c1` , the measured residual activity on PRKCH (human) (UniProt P24723) was 82.2

Sample `CCn1cnc2c(Nc3cccc(Cl)c3)nc(N[C@@H]3CCCC[C@@H]3N)nc21` , system: PRKCH (human) (UniProt P24723). Its residual activity is 77.6
